Assay: qHTS to identify inhibitors of the type 1 interferon - major histocompatibility complex class I in skeletal muscle: Secondary screen by immunofluorescence; also: nearly all actives have a fitted effect of over 70% in size
Details: C25cl48 myoblasts, IFN-b induced HLA-ABC immunofluorescence, 24 h; series mostly up to 49.8 µM
Inconclusive results are not listed. Active and inactive are the calls of the source. Calls follow the shape of the dose curve; as a rule, active = well fitted inhibition curve with a large enough effect; inconclusive = small, poorly fitted or top-dose-only effect; inactive = no such curve, though single readings can be large or run the other way.
Hi! Could you answer with just one of these? active, inactive

CC[C@@]1(O)C(=O)OCc2c1cc1n(c2=O)Cc2cc3c(CN(C)C)c(O)ccc3nc2-1 :: active
O=C(/C=C/c1cccc(S(=O)(=O)Nc2ccccc2)c1)NO :: active
O=c1[nH]c2cc(Cl)ccc2c(O)c1-c1ccc(Oc2ccccc2)cc1 :: inactive
CN(C)Cc1c(C(=O)NCCOc2ccc(C(=O)NO)cc2)oc2ccccc12 :: active
Cc1ccc(-c2ncn(-c3ccc(Nc4nccc(-c5cccc(N6CCOCC6)c5)n4)cc3)n2)cn1 :: active

Input line: GET /call?item= CCNC(=O)c1noc(-c2cc(C(C)C)c(O)cc2O)c1-c1ccc(CN2CCOCC2)cc1 returns the recorded outcome of this test.
Output line: inactive

Input line: GET /call?item= CC(C)(C)c1nc2c3cc[nH]c(=O)c3c3cc(F)ccc3c2[nH]1 returns the recorded outcome of this test.
Output line: active

Input line: GET /call?item= CCCOc1ccc2nc(NC(=O)OC)[nH]c2c1 returns the recorded outcome of this test.
Output line: inactive

Input line: GET /call?item= Cc1ccc(C(N)=O)cc1Nc1nccc(-c2cn(C(C)C)c3cnccc23)n1 returns the recorded outcome of this test.
Output line: active

Input line: GET /call?item= C1=C/COCc2cc(ccc2OCCN2CCCC2)Nc2nccc(n2)-c2cccc(c2)COC/1 returns the recorded outcome of this test.
Output line: active

Input line: GET /call?item= CCS(=O)(=O)N1CCN(c2ccc(Nc3ncc(C(N)=O)c(NC4CC4)n3)cc2)CC1 returns the recorded outcome of this test.
Output line: active

Input line: GET /call?item= CCC(=C/[C@H](C)C/C=C/C(C)=C/[C@@H](C)C(=O)[C@@H](C)[C@H](O)[C@@H](C)C/C(C)=C/C(=O)O)/C=C/[C@@H]1OC(=O)C=C[C@@H]1C returns the recorded outcome of this test.
Output line: inactive

Input line: GET /call?item= Cc1c[nH]c2nc(Nc3ccc(N4CCN(C)CC4)c(F)c3)nc(-c3cccc(CC#N)c3)c12 returns the recorded outcome of this test.
Output line: active

Input line: GET /call?item= CC(=O)[C@]1(O)Cc2c(O)c3c(c(O)c2[C@@H](O[C@H]2C[C@H](N)[C@H](O)[C@H](C)O2)C1)C(=O)c1ccccc1C3=O returns the recorded outcome of this test.
Output line: active

Input line: GET /call?item= Cc1cc(O)c(-c2ccc([C@@H](C)CN(C)C)cc2)c2c1[nH]c(=O)c1sccc12 returns the recorded outcome of this test.
Output line: active

Input line: GET /call?item= C=C1C(=O)O[C@@H]2[C@H]3O[C@]3(C)CC/C=C(\C)CC[C@@H]12 returns the recorded outcome of this test.
Output line: active

Input line: GET /call?item= C/C=C1\NC(=O)[C@H]2CSSCCC=C[C@H](CC(=O)N[C@H](C(C)C)C(=O)N2)OC(=O)[C@H](C(C)C)NC1=O returns the recorded outcome of this test.
Output line: active

----------
Assay: qHTS to identify inhibitors of the type 1 interferon - major histocompatibility complex class I in skeletal muscle: Secondary screen by immunofluorescence; also: nearly all actives have a fitted effect of over 70% in size
Conditions: C25cl48 myoblasts, IFN-b induced HLA-ABC immunofluorescence, 24 h; series mostly up to 49.8 µM
Records with an inconclusive call do not appear. The source made the active and inactive calls. The call rests on the fitted dose curve; in most records, active means well fitted inhibition curve with a large enough effect; inconclusive means small, poorly fitted or top-dose-only effect; inactive means no such curve, though single readings can be large or run the other way.
Hi! Could you answer with just one of these? True = active, False = inactive

CS[C@H]1SC[C@@H]2C(=O)N(C)[C@H](C(C)C)C(=O)OC[C@H](NC(=O)c3cnc4ccccc4n3)C(=O)N[C@H](C)C(=O)N(C)[C@H]1C(=O)N(C)[C@H](C(C)C)C(=O)OC[C@H](NC(=O)c1cnc3ccccc3n1)C(=O)N[C@H](C)C(=O)N2C :: True
C[C@H]1C[C@@H]2[C@H]([C@@H](O)C[C@@]3(C)[C@H]2CC[C@]3(O)C(=O)CO)[C@@]2(C)C=CC(=O)C=C12 :: False
CC(=O)NCC(=O)N1[C@@H]2CC[C@H]1c1ccc(Nc3ncc(C(F)(F)F)c(NC4CCC4)n3)cc12 :: True

Input line: GET /call?item= CCCCC(=O)O[C@]1(C(=O)CO)[C@@H](C)C[C@H]2[C@@H]3CCC4=CC(=O)C=C[C@]4(C)[C@@]3(F)[C@@H](O)C[C@@]21C returns the recorded outcome of this test.
Output line: False

----------
Test: qHTS to identify inhibitors of the type 1 interferon - major histocompatibility complex class I in skeletal muscle: Secondary screen by immunofluorescence; also: nearly all actives have a fitted effect of over 70% in size
Conditions: C25cl48 myoblasts, IFN-b induced HLA-ABC immunofluorescence, 24 h; series mostly up to 49.8 µM
Records with an inconclusive call do not appear. The source made the active and inactive calls. Calls follow the shape of the dose curve; as a rule, active = well fitted inhibition curve with a large enough effect; inconclusive = small, poorly fitted or top-dose-only effect; inactive = no such curve, though single readings can be large or run the other way.
Hi! Could you answer with just one of these? active, inactive

Input line: GET /call?item= O=C1CN2Cc3c(ccc(Cl)c3Cl)N=C2N1 returns the recorded outcome of this test.
Output line: inactive

Input line: GET /call?item= COC(=O)c1nc(Cl)c(Cl)nc1N returns the recorded outcome of this test.
Output line: active

----------
Experiment: qHTS to identify inhibitors of the type 1 interferon - major histocompatibility complex class I in skeletal muscle: Secondary screen by immunofluorescence; also: nearly all actives have a fitted effect of over 70% in size
Conditions: C25cl48 myoblasts, IFN-b induced HLA-ABC immunofluorescence, 24 h; series mostly up to 49.8 µM
Records with an inconclusive call do not appear. Activity calls are given as the source filed them. The call rests on the fitted dose curve; in most records, active means well fitted inhibition curve with a large enough effect; inconclusive means small, poorly fitted or top-dose-only effect; inactive means no such curve, though single readings can be large or run the other way. Numbered stars: 1 amine (or outer) side, 2 acyl side, 3 side chain; on linkers, the order of the positions; unused ones are H or OH. Bridge positions count the residues as written; N and C are the ends. Square brackets hold non-standard residues; d marks the D form. Peptide text beside a SMILES is read from it. I, II: the chains in the order shown. Actinocin(9to1) = Cc1c2oc3c(C)ccc(C(=O)[*:1])c3nc-2c(C(=O)[*:2])c(N)c1=O; NMeV = CN[C@H](C(=O)O)C(C)C; Sar = CNCC(=O)O
Hi! Could you answer with just one of these? active, inactive

Here's what some known entries look like.
Nc1ccccc1NC(=O)c1ccc(CNc2nccc(-c3cccnc3)n2)cc1 :: active
Cc1c2oc3c(C)ccc(C(=O)N[C@@H]4C(=O)N[C@H](C(C)C)C(=O)N5CCC[C@H]5C(=O)N(C)CC(=O)N(C)[C@@H](C(C)C)C(=O)O[C@@H]4C)c3nc-2c(C(=O)N[C@@H]2C(=O)N[C@H](C(C)C)C(=O)N3CCC[C@H]3C(=O)N(C)CC(=O)N(C)[C@@H](C(C)C)C(=O)O[C@@H]2C)c(N)c1=O (I: T[dV]P[Sar][NMeV] / II: T[dV]P[Sar][NMeV]; ester I:1-I:C, II:1-II:C; linker I:N-II:N via Actinocin(9to1)) :: active
Cc1cc(Nc2cc(NC(=O)c3c(Cl)cccc3Cl)ccn2)nc(N)n1 :: active
CC[C@@]1(O)C(=O)OCc2c1cc1n(c2=O)Cc2c-1nc1cc(F)c(C)c3c1c2[C@@H](N)CC3 :: active
CC(C)(C)CC(=O)OCC(=O)[C@@]1(O)CC[C@H]2[C@@H]3CCC4=CC(=O)C=C[C@]4(C)[C@H]3[C@@H](O)C[C@@]21C :: inactive
C=CC(=O)N1CC/C(=C\c2ccc(F)c([N+](=O)[O-])c2)C(=O)/C(=C/c2ccc(F)c([N+](=O)[O-])c2)C1 :: active

Input line: GET /call?item= O=C(Nc1cn[nH]c1-c1nc2ccc(CN3CCOCC3)cc2[nH]1)NC1CC1 returns the recorded outcome of this test.
Output line: active

Input line: GET /call?item= CC(C)c1cnn2c(NCc3ccccc3)cc(N[C@@H](CO)[C@H](O)CO)nc12 returns the recorded outcome of this test.
Output line: active

Input line: GET /call?item= COc1cccc2nc(-c3cccs3)nc(NN3C(=O)C=C(C)C3=O)c12 returns the recorded outcome of this test.
Output line: active

Input line: GET /call?item= CC1=C(CO)C(=O)O[C@@H]([C@@H](C)[C@H]2CC[C@H]3[C@@H]4C[C@H]5O[C@]56[C@@H](O)C=CC(=O)[C@]6(C)[C@H]4CC[C@]23C)C1 returns the recorded outcome of this test.
Output line: active

Input line: GET /call?item= O=[N+]([O-])c1ccc2c(c1)S(=O)(=O)C=C2 returns the recorded outcome of this test.
Output line: active

----------
Assay: qHTS to identify inhibitors of the type 1 interferon - major histocompatibility complex class I in skeletal muscle: Secondary screen by immunofluorescence; also: nearly all actives have a fitted effect of over 70% in size; also: potency is read from the fitted curve at half-maximal effect
Conditions: C25cl48 myoblasts, IFN-b induced HLA-ABC immunofluorescence, 24 h; series mostly up to 49.8 µM
Records with an inconclusive call do not appear. Active and inactive are the calls of the source. Calls come from the whole dose curve; as a rule, active = well fitted inhibition curve with a large enough effect; inconclusive = small, poorly fitted or top-dose-only effect; inactive = no such curve, though single readings can be large or run the other way.
Reported Potency values follow for various compounds

CCc1cc(C(N)=O)ccc1-n1nc(C(C)C)c2c(-n3cnc(-c4cnn(C)c4)c3)ccnc21 :: 258 nM (active)

Consider now this further compound.
Input line: Quickly give me recorded Potency for CN1CCC(c2c(O)cc(O)c3c(=O)cc(-c4ccccc4Cl)oc23)C1CO (stereo not drawn)
Output line: 408 nM (active)
